Sourced from ChEMBL document CHEMBL1129931

molecular target: Neuronal acetylcholine receptor; experiment: Binding affinity value obtained by measuring the displacement of radioligand [3H](-)-cytisine from whole rat brain Nicotinic acetylcholine receptor
PARAMETER MEASURED: Ki (µM)
Give the value in µM but do not write µM after it.

Problem: Suppose we examine the molecule Cc1ncccc1OC[C@H]1CCCN1C ; what Ki value has been reported?
Solution: 3

###

molecular target: Neuronal acetylcholine receptor subunit alpha-7 (Homo sapiens, UniProt P36544); assay: Bindind affinity value obtained by measuring the displacement of radioligand [125I]alpha-bungarotoxin from K-28 cells stably express human Nicotinic acetylcholine receptor alpha7
Sequence (P36544 whole entry): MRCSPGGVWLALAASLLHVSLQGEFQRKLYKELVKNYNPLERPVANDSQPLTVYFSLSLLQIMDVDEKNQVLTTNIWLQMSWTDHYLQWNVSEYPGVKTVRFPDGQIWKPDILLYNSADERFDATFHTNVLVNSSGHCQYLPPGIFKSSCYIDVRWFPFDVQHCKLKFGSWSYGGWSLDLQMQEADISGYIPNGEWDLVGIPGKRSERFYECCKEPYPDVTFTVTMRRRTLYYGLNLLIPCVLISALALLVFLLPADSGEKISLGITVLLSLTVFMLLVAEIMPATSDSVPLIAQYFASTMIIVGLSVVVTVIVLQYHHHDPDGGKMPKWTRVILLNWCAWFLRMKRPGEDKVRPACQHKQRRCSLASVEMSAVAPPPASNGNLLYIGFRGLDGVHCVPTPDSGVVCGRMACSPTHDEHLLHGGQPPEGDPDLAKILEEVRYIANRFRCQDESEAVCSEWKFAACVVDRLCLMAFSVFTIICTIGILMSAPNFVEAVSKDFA
pKi: −log10 of the molar value.
PARAMETER MEASURED: pKi

Reference set, count: 5
CPD SMILES	OBSERVED RESULT
Cc1cc([C@@H]2CCCN2C)on1	5.39
CN1CCC[C@H]1COc1cccnc1	5.82
Cc1ncccc1OC[C@H]1CCCN1C	< 5.00
Cc1ncccc1OC[C@@H]1CCCN1	< 5.00
Cc1ncccc1OC[C@H]1CCCN1	< 5.00

Please find the next compound below.
Problem: // fetch Neuronal acetylcholine receptor subunit alpha-7 (Homo sapiens, UniProt P36544) pKi for Cc1ncccc1OC[C@@H]1CCCN1C
Solution: < 5.00

###

assay: Oral bioavailability in dog; type: ADME, organism-based, Canis lupus familiaris; settings: in vivo
PARAMETER MEASURED: bioavailability (%)
// return numeric value only (unit: %, not printed)

Before answering, review these 4 worked examples.
CPD SMILES	PARAMETER MEASURED	UNIT TAG	OBSERVED RESULT
Cc1ncccc1OC[C@H]1CCCN1	bioavailability	%	66
Cc1ncccc1OC[C@@H]1CCCN1C	bioavailability	%	5.8
Cc1cc([C@@H]2CCCN2C)on1	bioavailability	%	1.2
Cc1ncccc1OC[C@@H]1CCCN1	bioavailability	%	61.5

Please examine the following record next.
Problem: For the compound Cc1ncccc1OC[C@H]1CCCN1C , what bioavailability is on record?
Solution: 4.9

###

target: Neuronal acetylcholine receptor; experiment: Binding affinity value obtained by measuring the displacement of radioligand [3H](-)-cytisine from a preparation of whole rat brain
PARAMETER MEASURED: pKi
Lab note — pKi values are minus log10 of concentrations in M.

Problem: What measured pKi goes with CN1CCC[C@H]1COc1cccnc1 ?
Solution: 9.55

###

Max listing for selected molecules.
test system: IMR-32; experiment: The maximal efficacy relative to 100 uM nicotine; format: functional, Homo sapiens
The response must be a number in % with no trailing unit.

Guide cases for Max, answers given:
CPD SMILES	Max (%)
CN1CCC[C@H]1COc1cccnc1	100
Cc1ncccc1OC[C@@H]1CCCN1	8
Cc1ncccc1OC[C@H]1CCCN1	11
Cc1ncccc1OC[C@@H]1CCCN1C	29
CN1CCC[C@H]1c1cccnc1	100

We next turn to a different molecule, shown below.
Problem: Entry under review: Cc1cc([C@@H]2CCCN2C)on1 . Reported Max?
Solution: 85

###

assay: Half-life was measured in (in vitro) dog liver slice experiments following intravenous administration to dogs; type: ADME, organism-based, Canis lupus familiaris; details: in vivo
PARAMETER MEASURED: half-life

CPD SMILES	half-life
Cc1ncccc1OC[C@@H]1CCCN1	96 min

Problem: Recorded half-life for Cc1ncccc1OC[C@H]1CCCN1C , please?
Solution: 36.6 min

Problem: // lookup half-life for Cc1cc([C@@H]2CCCN2C)on1
Solution: 12.6 min

Problem: Request the reported half-life associated with Cc1ncccc1OC[C@H]1CCCN1
Solution: 84 min

Problem: Which half-life value is on record for Cc1ncccc1OC[C@@H]1CCCN1C ?
Solution: 18.6 min

###

assay: Half-life was measured in (in vitro) dog liver slice experiments; assay type: ADME, Canis lupus familiaris; conditions: dog liver slices
PARAMETER MEASURED: half-life (h)
Dear colleague, please return just the value in h, with no unit written.

Below are worked cases with known answers.
CPD SMILES	half-life / h
Cc1cc([C@@H]2CCCN2C)on1	3
Cc1ncccc1OC[C@@H]1CCCN1C	9

Alright, here's another molecule for you.
Problem: Quick one: half-life of Cc1ncccc1OC[C@H]1CCCN1C ?
Solution: 8.5
